- method summary: JC-1 mitochondrial signal, unstimulated adipocytes – cell-based, JC-1 fluorescence, 3T3-L1 adipocytes, 24 h, 100 nL compound, profiling panel (AID 1168); also: test concentration not given here
- stated conditions: JC-1 mitochondrial fluorescence, higher = more signal, called active from +8 up or from −8 down
value type: z-score
Enter a number only.

Examples with answers:
chem_smiles=COCCOC(=O)N1C(=O)[C@@]2(c3cc(C#CCCO)ccc31)[C@H](C(N)=O)[C@H]1C(=O)O[C@H](c3ccccc3)[C@H](c3ccccc3)N1[C@@H]2c1ccccc1OCCO value_type=z-score reading=0.181
chem_smiles=CC1=C([C@H](O)CCc2ccccc2)[C@H](CO)n2c(=O)n(-c3ccccc3)c(=O)n2C1 value_type=z-score reading=0.603
chem_smiles=CCOC(=O)C1=C[C@@H](C(C)(C)C)N(S(=O)(=O)c2ccc(C)cc2)[C@H]1c1ccc(C#N)cc1 value_type=z-score reading=-0.398

# next compound below
Task: Return the recorded z-score value; entry: C=C(/C(=C/C[C@@H](OC(C)=O)c1cccc(OCCO)c1)c1cnc2ccccc2c1)C(C)C
Output: -0.436

====

Measured z-score of individual entries
- method summary: JC-1 mitochondrial signal, unstimulated myeloma cells – cell-based, JC-1 fluorescence, RPMI8226, 24 h, 100 nL compound, profiling panel (AID 1169); also: test concentration not given here
- stated conditions: JC-1 mitochondrial potential fluorescence, higher = more signal

molecule=CC(C)NC(=O)[C@@H]1c2ccccc2C(=O)N(Cc2ccccc2C(F)(F)F)[C@H]1c1ccc(CO)cc1 reading=0.317
molecule=COc1ccc([Si](C)(C)[C@H]2[C@H](CC(=O)N3Cc4ccccc4C[C@H]3CO)O[C@@]3(C(=O)N(C)c4ccccc43)[C@@H]2C)cc1 reading=-1.1

Now consider the entry below.
Task: Give the value of z-score reported for the following: C=CCC(OC(C)=O)[C@@H]1[C@@H](N(Cc2ccc(-c3cccc(C(F)(F)F)c3)o2)C(=O)Cc2ccc(F)cc2)c2cc(OCCCO)ccc2N1C(=O)Cc1ccc2ccccc2c1 (stereo partly drawn)
Output: -0.0117

====

- test target: Torsin-1A (Homo sapiens) (UniProt O14656)
- Sequence (O14656 whole entry, looked up): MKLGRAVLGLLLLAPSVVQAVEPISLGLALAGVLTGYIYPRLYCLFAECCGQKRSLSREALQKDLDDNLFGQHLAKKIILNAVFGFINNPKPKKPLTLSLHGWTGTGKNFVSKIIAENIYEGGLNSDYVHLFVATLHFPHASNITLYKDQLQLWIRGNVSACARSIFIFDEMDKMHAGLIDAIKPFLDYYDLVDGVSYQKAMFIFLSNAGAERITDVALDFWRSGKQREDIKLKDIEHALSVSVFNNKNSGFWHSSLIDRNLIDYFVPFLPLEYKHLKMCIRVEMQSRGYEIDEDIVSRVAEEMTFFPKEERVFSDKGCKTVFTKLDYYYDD
- method summary: TOR1A wild-type binding on microarray – cell lysate, small-molecule microarray, lysate, 635/667 nm, primary screen (AID 1149)
- stated conditions: COS7 hTOR1A-WT lysate, 635 nm fluorescence, higher = more signal
value type: composite z-score

Task: Give composite z-score; test system Torsin-1A (Homo sapiens) (UniProt O14656); compound C[C@@H]1ON(c2ccc(I)cc2)[C@H](c2cccc(NC(=O)OCC3c4ccccc4-c4ccccc43)c2)[C@H]1C(=O)N1C(=O)OC[C@H]1Cc1ccccc1
Output: 0.579

Task: # return composite z-score of O=C1O[C@@H](c2ccccc2)[C@@H](c2ccccc2)N2[C@@H](c3ccc(OCCO)cc3)[C@]3(C(=O)Nc4ccc(C#CCCO)cc43)[C@@H](C(=O)O)[C@H]12 (system: Torsin-1A (Homo sapiens) (UniProt O14656))
Output: 0.892

Task: Provide composite z-score, tested on Torsin-1A (Homo sapiens) (UniProt O14656), for COC(=O)[C@]1(Cc2ccccc2)N=C(c2ccc(OCCCO)cc2)O[C@@H]1c1ccccc1CN=[N+]=[N-] .
Output: -0.133

Task: # lookup: Torsin-1A (Homo sapiens) (UniProt O14656) composite z-score, key = C=CCN1C(=O)[C@@]2(O[C@@H](CCn3cc([C@H](O)c4ccccc4)nn3)[C@H]([Si](C)(C)c3ccc(OC)cc3)[C@H]2C)c2cc(N3C(=O)c4cccc5cccc3c45)ccc21
Output: -0.488

Task: Would you please give the reported composite z-score of C=C(/C(=C/C[C@@H](OC(C)=O)c1cccc(OCCO)c1)c1cnc2ccccc2c1)C(C)C with Torsin-1A (Homo sapiens) (UniProt O14656)?
Output: 1.83

Task: Provide composite z-score, system Torsin-1A (Homo sapiens) (UniProt O14656), entry CC[C@@H]1C=C(C(=O)O)[C@H](c2ccc(OC)cc2)N1S(=O)(=O)c1ccc(C)cc1
Output: -0.579

Task: State composite z-score (Torsin-1A (Homo sapiens) (UniProt O14656)) of COC(=O)C(CC#Cc1ccc2c(c1)[C@]1(C(=O)N2)[C@H](c2ccc(OCCO)cc2)N2[C@H](c3ccccc3)[C@H](c3ccccc3)OC(=O)[C@H]2[C@@H]1C(=O)N1CCCCCCC1)C(=O)OC .
Output: 2.01

====

- method summary: JC-1 mitochondrial signal, unstimulated adipocytes – cell-based, JC-1 fluorescence, 3T3-L1 adipocytes, 24 h, 100 nL compound, profiling panel (AID 1168); also: test concentration not given here
- stated conditions: JC-1 mitochondrial fluorescence, higher = more signal, called active from +8 up or from −8 down
The source made the active and inactive calls.
Entries and their z-score values follow.

Sample answers from the record:
compound=O=C1N(Cc2ccccc2)c2ccccc2C[C@@]12COC(c1ccc(OCCCO)cc1)=N2 value_type=z-score reading="-0.382 (inactive)"
compound=O=C(NCCN1CCOCC1)[C@@H]1c2ccccc2C(=O)N(Cc2ccccc2C(F)(F)F)[C@H]1c1ccc(CO)cc1 value_type=z-score reading="-0.0687 (inactive)"
compound=COC(=O)[C@@]1(Cc2ccccc2)[C@H]2c3cc(C(=O)N(C)C)n(Cc4ccc(C(F)(F)F)nc4)c3C[C@H]2CN1C(=O)c1ccccc1 value_type=z-score reading="-1.09 (inactive)"
compound="CN1C(=O)C2C(C1=O)C1C=C(c3ccc(CO)cc3)C2C(C2CC2)N1C (configuration not stated)" value_type=z-score reading="-0.768 (inactive)"
compound=COC(=O)[C@H](Cc1ccc(O)cc1)N[C@@H](/C=C/C1CC1)[C@H](O)Cc1ccccc1 value_type=z-score reading="-0.177 (inactive)"

Task: Return value of z-score for input COCCOC(=O)N1C(=O)[C@@]2(c3cc(C#CCC(C(=O)OC)C(=O)OC)ccc31)[C@H](C(=O)Nc1nc3ccccc3s1)[C@H]1C(=O)O[C@H](c3ccccc3)[C@H](c3ccccc3)N1[C@@H]2c1ccc(OCCO)cc1 , no commentary.
Output: 1.05 (inactive)

Task: Note z-score for the compound shown: O=C1O[C@H](Cc2ccccc2)[C@@H]2[C@H]3C=CCCC=C3CN2[C@H]1Cc1ccc(O)cc1
Output: -0.639 (inactive)

====

- method summary: JC-1 mitochondrial signal, unstimulated myeloma cells – cell-based, JC-1 fluorescence, RPMI8226, 24 h, 100 nL compound, profiling panel (AID 1169); also: test concentration not given here
- stated conditions: JC-1 mitochondrial potential fluorescence, higher = more signal
Assign satisfied to entries whose z-score meets or exceeds -0.7; assign not satisfied to the rest.

The examples below pair each entry with its known result.
compound="COC(=O)C1(Cc2ccccc2)C=C2C(=C(C)C(=O)C2C)CN1 (stereo not drawn)" class_assignment=satisfied
compound="CC(=O)c1ccc(C(O)C2C=CC3C(=O)N(c4ccccc4)C(=O)C3N2Nc2ccc(C(C)C)cc2)cc1 (stereo not drawn)" class_assignment=satisfied
compound=CN(C)CCCC[C@@H]1NC(=O)[C@@H]2C[C@H](C(=O)NCCCCCN)[C@H](c3cccc(OCCO)c3)N2C1=O class_assignment="not satisfied"
compound=O=C(NC1CC1)[C@@H]1c2ccccc2C(=O)N(Cc2ccc(OC(F)(F)F)cc2)[C@H]1c1ccc(CO)cc1 class_assignment=satisfied
compound=CCOC(=O)C[C@H]1[C@H](OC(=O)c2cc3ccccc3oc2=O)[C@@H](NC(=O)CC(C)C)c2cc(OCCCO)ccc2N1C(=O)Cc1ccc(OC)cc1 class_assignment=satisfied

Task: Hi team, for COc1ccc([Si](C)(C)[C@H]2[C@H](CCO)O[C@@]3(C(=O)N(Cc4cccc(N(C=O)c5ccccc5)c4)c4ccccc43)[C@@H]2C)cc1 , is the recorded z-score at or above -0.7?
Output: not satisfied

Task: Given the entry C[N+](C)(C)CCCC[C@@H]1NC(=O)[C@@H]2C[C@H](C(=O)NCc3ccc(F)cc3)[C@H](c3ccc(O)cc3)N2C1=O , answer whether its z-score meets or surpasses -0.7.
Output: satisfied

====

- test target: Left-right determination factor 2 (Homo sapiens) (UniProt O00292)
- Sequence (O00292 whole entry, looked up): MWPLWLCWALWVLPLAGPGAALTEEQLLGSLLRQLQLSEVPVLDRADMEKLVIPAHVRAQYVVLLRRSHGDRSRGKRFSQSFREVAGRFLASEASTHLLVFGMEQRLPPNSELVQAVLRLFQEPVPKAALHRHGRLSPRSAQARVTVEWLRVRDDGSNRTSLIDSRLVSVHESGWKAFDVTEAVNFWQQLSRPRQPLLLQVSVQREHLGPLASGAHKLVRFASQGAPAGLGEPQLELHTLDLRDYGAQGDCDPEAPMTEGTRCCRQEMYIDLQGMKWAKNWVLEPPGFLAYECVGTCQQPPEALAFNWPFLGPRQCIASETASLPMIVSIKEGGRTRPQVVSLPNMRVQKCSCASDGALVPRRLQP
- method summary: small molecules binding LEFTY2 protein – biochemical, small-molecule microarray, 635 nm fluorescence scan, primary screen (AID 1110)
- stated conditions: higher = more signal
value type: composite z-score
Could you keep your reply to the number by itself?

compound=COCCOC(=O)N1C(=O)[C@@]2(c3ccccc31)[C@H](C(=O)N1CCN(c3ncccn3)CC1)[C@H]1C(=O)O[C@H](c3ccccc3)[C@H](c3ccccc3)N1[C@@H]2c1ccccc1OCCO reading=0.687
compound=C=CCOC(=O)[C@@H]1[C@H]2C(=O)O[C@H](c3ccccc3)[C@H](c3ccccc3)N2[C@H](c2ccc(OCCOC(=O)[C@H]3C[C@H]4C(=O)N5CCC[C@H]5C(=O)N4[C@H]3c3cccc(OCCO)c3)cc2)[C@@]12C(=O)Nc1ccc(I)cc12 reading=1.19
compound="O=C1C2C=CC(C(O)C3CCCCC3)N(n3cnnc3)C2C(=O)N1Cc1ccccc1 (centres undefined)" reading=-0.0665
compound=COC(=O)C(CC#Cc1ccc2c(c1)[C@]1(C(=O)N2)[C@H](C(=O)NC[C@H](O)c2ccccc2)[C@H]2C(=O)O[C@H](c3ccccc3)[C@H](c3ccccc3)N2[C@@H]1c1ccccc1OCCO)C(=O)OC reading=0.441
compound=C=C(COC)/C(=C/C[C@@H](OC(C)=O)c1ccccc1OCCO)c1cnc2ccccc2c1 reading=0.248
compound=CCCC=C(CCC)[C@@H](NC(=O)OCC(C)C)c1ccc(C(=O)OC)cc1 reading=0.66
compound=COC(=O)[C@@]1(Cc2ccc(OC)cc2)[C@H]2c3cc(C(=O)N(C)C)[nH]c3C[C@H]2CN1C(=O)c1ccccc1 reading=-0.228
compound=CC(C)C(=C=CC[C@H](O)c1ccccc1OCCO)C[C@H](O)COCc1ccccc1 reading=-0.274

Task: Please give the documented composite z-score of CCCC#C[Si](O[C@H](CC)c1cn(Cc2ccccc2)nn1)(C(C)C)C(C)C
Output: 0.631

Task: Please give the documented composite z-score of CC(=O)NCCCC[C@@H]1NC(=O)[C@H]2C[C@@H](C(=O)NCCCCCCNC(=O)CS)[C@@H](c3cccc(OCCO)c3)N2C1=O
Output: -0.0449

Task: Dear colleague, please send me the reported composite z-score for CCCNC(=O)[C@@]1(Sc2ccc(C)cc2)CC(=O)N(Cc2ccccc2Cl)[C@@H]1c1ccc(CO)cc1I when you can.
Output: -1.4
